Test: Cytotoxicity against african green monkey Vero E6 cells assessed as cell viability after 48 hrs by Cell Titer-Glo luminescent assay
Type: cell-based
Details: chlorocebus sabaeus
outcome.measure: CC50

Name the recorded CC50 for `C[C@H](c1cccc2ccccc12)N1CCC(C(=O)NCc2ccc(F)cc2)CC1` .
> 100 µM

`COc1cc(CNC(=O)C2CCN([C@H](C)c3cccc4ccccc34)CC2)ccn1` ?
> 100 µM

Proceed to `C[C@H](c1cccc2ccccc12)N1CCC(C(=O)NCc2cccc(F)c2)CC1`
> 100 µM

Can you check `CC(=O)Nc1cccc(CNC(=O)C2CCN([C@H](C)c3cccc4ccccc34)CC2)c1` next?
> 100 µM

Follow-up item: `C[C@H](c1cccc2ccccc12)N1CCC(C(=O)NCc2ccc3c(c2)OCO3)CC1`
> 100 µM

Follow-up entry: `COC[C@@H](NC(=O)C1CCN([C@H](C)c2cccc3ccccc23)CC1)c1ccccc1`
> 100 µM

Taken from ChEMBL document CHEMBL3232931.
